meta.source: PubChem BioAssay

- Tested on: transactivating tegument protein VP16 (Human herpesvirus 1)
- testDescription: VP16 transactivation reporter inhibitors, counter-screen for SRC2 inhibitor project, cell-based, luminescence, single concentration (AID 652007)
- conditionSummary: cell-based VP16 transactivation luciferase reporter, at 8.9 µM, stronger effect = higher value
As shown below, each of these compounds has a reported inhibition value.
# number only, unit % dropped from output

COc1ccc(CCNc2nnc(Sc3nnnn3-c3ccccc3)s2)cc1OC = 5.42
Cc1ccc(C)c(N2CCN(C(=O)CCS(=O)(=O)c3ccc4c(c3)NC(=O)CO4)CC2)c1 = 3.15
O=C1NC(c2ccccc2)Cc2ccncc21 (stereo unspecified) = -6.21
Brc1ccc2ncnc(NCc3ccccc3)c2c1 = 21.7
Cn1nc(C(C)(C)C)cc1C(=O)N1CCCCC1c1cc(C(=O)Nc2ccccc2Cl)no1 (stereo unspecified) = 7.65

Turning now to a further record.
*Q* Please indicate inhibition recorded for `O=C(CCCc1cccs1)N1CCN(S(=O)(=O)c2ccccc2Br)CC1`
*A* -1.31
